Where do the numbers come from? From BindingDB's records for doi:10.7270/Q2S46Q8P.

Assign IC50 to each entry below.
target: UniProt P08908; experiment: serotonin 1A receptor activation, dose response (AID 718); settings: inactive by the depositor's call; pH 7.4; 23 °C

[ask] Consider the compound shown here: COCCOC(=O)c1[nH]c2c(c1C)C(=O)CC(c1ccccc1)C2 (configuration not stated) What is its recorded IC50?
[reply] 40 µM

[ask] Consider the compound shown here: CCOc1ccc(C2=Nn3c(nnc3-c3ccccc3OC)SC2)cc1 What is its recorded IC50?
[reply] 25 µM

[ask] Consider the compound shown here: CC(C)=CCC(C)(C)CNC(=O)NC1CCCCC1 What is its recorded IC50?
[reply] 40 µM

[ask] Consider the compound shown here: COc1ccc(C2N(c3ccc(F)cc3)C(=O)C3CCCN32)cc1 (configuration not stated) What is its recorded IC50?
[reply] 40 µM

[ask] Consider the compound shown here: CN(C)c1nc(OCCNC(=O)COc2ccc(Cl)cc2Cl)nc(N2CCCCC2)n1 What is its recorded IC50?
[reply] 40 µM

[ask] Consider the compound shown here: N#C/C(=C/c1ccc(N2CCCCCC2)o1)c1ccc(F)cc1 What is its recorded IC50?
[reply] 10.9 µM

[ask] Consider the compound shown here: CCCOc1ccc2nc(NC(=O)OC)[nH]c2c1 What is its recorded IC50?
[reply] 40 µM

[ask] Consider the compound shown here: CCCOCCOC(=O)c1[nH]c2c(c1C)C(=O)CC(c1cc(OC)ccc1OC)C2 (configuration not stated) What is its recorded IC50?
[reply] 40 µM

[ask] Consider the compound shown here: CCOc1cccc(-c2nnc3n2N=C(c2cc(OC)ccc2OC)CS3)c1 What is its recorded IC50?
[reply] 22.2 µM

[ask] Consider the compound shown here: COC(=O)Nc1nc2ccc(Sc3ccccc3)cc2[nH]1 What is its recorded IC50?
[reply] 40 µM

[ask] Consider the compound shown here: COc1cc2c(cc1OC)-c1cc(N3CCCc4ccccc43)nc(=O)n1CC2 What is its recorded IC50?
[reply] 25 µM

[ask] Consider the compound shown here: CCn1c(=O)c(C(=O)Nc2nc3ccccc3[nH]2)c(O)c2ccccc21 What is its recorded IC50?
[reply] 40 µM

====

Target: 5-hydroxytryptamine receptor 1A (Homo sapiens, UniProt P08908)
Sequence (P08908 whole entry): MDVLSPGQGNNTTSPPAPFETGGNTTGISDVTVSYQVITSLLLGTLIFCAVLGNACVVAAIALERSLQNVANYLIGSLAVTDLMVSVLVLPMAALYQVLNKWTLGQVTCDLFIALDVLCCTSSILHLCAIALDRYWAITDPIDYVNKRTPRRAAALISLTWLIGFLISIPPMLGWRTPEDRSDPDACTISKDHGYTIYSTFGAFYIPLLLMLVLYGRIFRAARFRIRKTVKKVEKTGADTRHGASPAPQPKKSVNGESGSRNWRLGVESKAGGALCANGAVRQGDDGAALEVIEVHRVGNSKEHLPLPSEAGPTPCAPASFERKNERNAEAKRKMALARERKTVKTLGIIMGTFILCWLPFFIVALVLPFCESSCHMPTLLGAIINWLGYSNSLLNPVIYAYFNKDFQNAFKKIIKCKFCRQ
Experiment: serotonin 1A receptor activation, dose response (AID 718)
Conditions: pH 7.4; 23 °C
Class boundaries, taken from values of IC50, are as follows: label 0 (below 2 µM), label 1 (2 µM to below 5 µM), label 2 (5 µM or more)

[ask] Sort Clc1ccc(-n2nnnc2Sc2ncnc3sccc23)cc1 into one of the categories.
[reply] label 1

[ask] Sort COc1ccc(-n2c(O)cc(NCc3ccncc3)c2O)cc1 into one of the categories.
[reply] label 2

[ask] Sort COc1cc(NS(=O)(=O)c2ccc(C)cc2)c2ncccc2c1 into one of the categories.
[reply] label 0

[ask] Sort CSc1ccccc1NC=C1C(=O)CC(C)(C)CC1=O into one of the categories.
[reply] label 0

[ask] Sort CS(=O)(=O)c1nc(-c2ccccc2)cc(C(F)(F)F)n1 into one of the categories.
[reply] label 1

[ask] Sort Cn1c(-c2c(N)n(C3CCCC3)c3nc4ccccc4nc23)nc2ccccc21 into one of the categories.
[reply] label 1

[ask] Sort CC(=O)Oc1ccc(-n2c(O)c3c(c2O)C2(C)C=CC3(C)O2)cc1 into one of the categories.
[reply] label 2

[ask] Sort CCn1nc(-c2ccccc2)nc2c(=O)n(C)c(=O)nc1-2 into one of the categories.
[reply] label 0

[ask] Sort COc1cccc(N2CCN(c3ncnc4c3cnn4-c3ccc(C)cc3C)CC2)c1 into one of the categories.
[reply] label 1

[ask] Sort N#CCCS(=O)(=O)c1nnnn1-c1ccccc1 into one of the categories.
[reply] label 1

====

molecular target: 5-hydroxytryptamine receptor 1A (Homo sapiens); experiment: serotonin 1A receptor activation, dose response (AID 718); settings: pH 7.4; 23 °C
Assign labels as follows, please: class 1 for IC50 below 3000 nM; class 0 for IC50 equal to or exceeding 3000 nM.

[ask] Please indicate whether the reported IC50 of COc1ccc(-n2nnnc2S(=O)(=O)CC(=O)N2CCCCC2)cc1 is strictly below 3000 nM.
[reply] class 1

[ask] Please indicate whether the reported IC50 of COc1cccc(N2CCN(c3ncnc4c3[nH]c3ccc(F)cc34)CC2C)c1 (stereo unspecified) is strictly below 3000 nM.
[reply] class 1

[ask] Please indicate whether the reported IC50 of CS(=O)(=O)c1nc(-c2cccs2)cc(C(F)(F)F)n1 is strictly below 3000 nM.
[reply] class 1

[ask] Please indicate whether the reported IC50 of COc1ccccc1-c1nnc2n1N=C(c1ccc(O)c(O)c1)CS2 is strictly below 3000 nM.
[reply] class 0

[ask] Please indicate whether the reported IC50 of CCC(NC(=O)Nc1nnc(C(F)(F)F)s1)(C(F)(F)F)C(F)(F)F is strictly below 3000 nM.
[reply] class 0

[ask] Please indicate whether the reported IC50 of Cc1ccc(-n2nc3c([n+]2[O-])CCc2c-3n[o+]n2[O-])cc1 is strictly below 3000 nM.
[reply] class 0

[ask] Please indicate whether the reported IC50 of CC(=O)Nc1cc(OC(C)=O)c2nonc2c1OC(C)=O is strictly below 3000 nM.
[reply] class 1

[ask] Please indicate whether the reported IC50 of CCN(CC)c1ccc2c(Cl)c(Br)c(=O)oc2c1 is strictly below 3000 nM.
[reply] class 1

[ask] Please indicate whether the reported IC50 of COc1ccc(-c2cc(C(F)(F)F)nc(S(C)(=O)=O)n2)cc1OC is strictly below 3000 nM.
[reply] class 0

[ask] Please indicate whether the reported IC50 of Cc1ccc(S(=O)(=O)Nc2cccc3ncccc23)s1 is strictly below 3000 nM.
[reply] class 1

[ask] Please indicate whether the reported IC50 of COc1cccc(N2CCN(c3ncnc4c3[nH]c3ccccc34)CC2C)c1 (stereo unspecified) is strictly below 3000 nM.
[reply] class 0

[ask] Please indicate whether the reported IC50 of O=C(Nc1ccc(-c2nc3ncccc3o2)cc1)c1ccc(Br)o1 is strictly below 3000 nM.
[reply] class 0

[ask] Please indicate whether the reported IC50 of CCn1nc(-c2cccs2)nc2c(=O)n(C)c(=O)nc1-2 is strictly below 3000 nM.
[reply] class 1

[ask] Please indicate whether the reported IC50 of O=C(Nc1ccc(N2CCOCC2)cc1)Nc1ccc2nc(-c3ccco3)c(-c3ccco3)nc2c1 is strictly below 3000 nM.
[reply] class 1

[ask] Please indicate whether the reported IC50 of CS(=O)(=O)c1nc(-c2ccco2)cc(C(F)(F)F)n1 is strictly below 3000 nM.
[reply] class 0

[ask] Please indicate whether the reported IC50 of O=S1(=O)C=C(Sc2nnc(-c3ccccc3)o2)c2ccccc21 is strictly below 3000 nM.
[reply] class 1
